Test: Apparent clearance in Sprague-Dawley rat at 1 mg/kg, iv
Assay type: ADME, organism-based
Settings: in vivo
Attribute: clearance
REPORTED_ENDPOINT: clearance

STRUCTURE: COc1cc(C(=O)[N-]S(=O)(=O)c2ccc(-n3nc(C(F)(F)F)cc3-c3ccc(C)cc3)cc2)ccc1[O-].[Na+].[Na+]
MEASUREMENT: 3.24 mL/min/kg
//
STRUCTURE: COc1cc(/C=C/C(=O)[N-]S(=O)(=O)c2ccc(-n3nc(C(F)(F)F)cc3-c3ccc(C)cc3)cc2)ccc1[O-].[Na+].[Na+]
MEASUREMENT: 8.64 mL/min/kg
